meta.source: PubChem BioAssay AID1845201

Tested on: COR L88 complex tumor spheroid viability
assayText: Anticancer human tumor COR L88 cell line growth inhibition;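 further: compound exposure lasted 7 days before viability readout; percent of DMSO vehicle-treated spheroids = 100%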
conditionLabel: second compound 31.6 µM; first compound 0.949 µM; hits give low values
Each entry below lists one item and its recorded viability, T/C value.
measuredEndpoint: viability, T/C

{"molecule": "CNCc1ccc(-c2cc(-c3nc(-c4ccc(S(=O)(=O)C(C)C)cc4)cnc3N)on2)cc1 + Cn1nnc2c(C(N)=O)ncn2c1=O", "measuredEndpoint": "viability, T/C", "reading": "25.1%"}
{"molecule": "Cc1sc2c(c1C)C(c1ccc(Cl)cc1)=NC(CC(=O)Nc1ccc(O)cc1)c1nnc(C)n1-2 (centres undefined) + Cn1nnc2c(C(N)=O)ncn2c1=O", "measuredEndpoint": "viability, T/C", "reading": "42.7%"}
{"molecule": "O=C(c1cc(Cc2n[nH]c(=O)c3ccccc23)ccc1F)N1CCN(C(=O)C2CC2)CC1 + Cn1nnc2c(C(N)=O)ncn2c1=O", "measuredEndpoint": "viability, T/C", "reading": "57.5%"}
{"molecule": "Cn1ncnc1[C@H]1c2n[nH]c(=O)c3cc(F)cc(c23)N[C@@H]1c1ccc(F)cc1 + Cn1nnc2c(C(N)=O)ncn2c1=O", "measuredEndpoint": "viability, T/C", "reading": "38.9%"}

###

The following compounds are shown together with reported viability, T/C values.
Tested on: COR L88 complex tumor spheroid viability
assayText: Anticancer human tumor COR L88 cell line growth inhibition;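 further: compound exposure lasted 7 days before viability readout; percent of DMSO vehicle-treated spheroids = 100%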
conditionLabel: second compound 0.03 µM; first compound 0.0316 µM; hits give low values
measuredEndpoint: viability, T/C (%)

{"compound": "CC(C)n1c(=O)n(C)c2cnc3cc(F)c(-c4ccc(OCCCN5CCCCC5)nc4)cc3c21 + CC[C@@]1(O)C(=O)OCc2c1cc1n(c2=O)Cc2cc3c(CN(C)C)c(O)ccc3nc2-1", "measuredEndpoint": "viability, T/C", "reading": 46.5}
{"compound": "[2H]c1nc(C)nc([2H])c1-c1cc(NC[C@@H](C)c2cccc3c(C(=O)NC)ccnc23)ncn1 + CC[C@@]1(O)C(=O)OCc2c1cc1n(c2=O)Cc2cc3c(CN(C)C)c(O)ccc3nc2-1", "measuredEndpoint": "viability, T/C", "reading": 56.6}
{"compound": "CC1COCCN1c1cc(-c2ccnn2C)c2ccnc(-c3ccn[nH]3)c2n1 (stereo unspecified) + CC[C@@]1(O)C(=O)OCc2c1cc1n(c2=O)Cc2cc3c(CN(C)C)c(O)ccc3nc2-1", "measuredEndpoint": "viability, T/C", "reading": 26.1}
{"compound": "COc1ccc([C@@H](O)c2cc(-c3ncnc4cc(N5CCOCC5)ccc34)c(F)cc2Cl)nn1 + CC[C@@]1(O)C(=O)OCc2c1cc1n(c2=O)Cc2cc3c(CN(C)C)c(O)ccc3nc2-1", "measuredEndpoint": "viability, T/C", "reading": 53.1}
{"compound": "COc1cc(C)[nH]c(=O)c1CN1CCc2c(Cl)cc(C(OC)C3COC3)c(Cl)c2C1=O (stereo unspecified) + CC[C@@]1(O)C(=O)OCc2c1cc1n(c2=O)Cc2cc3c(CN(C)C)c(O)ccc3nc2-1", "measuredEndpoint": "viability, T/C", "reading": 43.3}
{"compound": "Cc1cc(C)c(CNC(=O)c2cc(-c3ccc(CN4CCOCC4)cc3)cc3c2cnn3C2CCCC2)c(=O)[nH]1 + CC[C@@]1(O)C(=O)OCc2c1cc1n(c2=O)Cc2cc3c(CN(C)C)c(O)ccc3nc2-1", "measuredEndpoint": "viability, T/C", "reading": 52.4}
